Target: cholesterol side-chain cleaving enzyme (Sus scrofa, UniProt P10612)
Sequence (P10612 40-520): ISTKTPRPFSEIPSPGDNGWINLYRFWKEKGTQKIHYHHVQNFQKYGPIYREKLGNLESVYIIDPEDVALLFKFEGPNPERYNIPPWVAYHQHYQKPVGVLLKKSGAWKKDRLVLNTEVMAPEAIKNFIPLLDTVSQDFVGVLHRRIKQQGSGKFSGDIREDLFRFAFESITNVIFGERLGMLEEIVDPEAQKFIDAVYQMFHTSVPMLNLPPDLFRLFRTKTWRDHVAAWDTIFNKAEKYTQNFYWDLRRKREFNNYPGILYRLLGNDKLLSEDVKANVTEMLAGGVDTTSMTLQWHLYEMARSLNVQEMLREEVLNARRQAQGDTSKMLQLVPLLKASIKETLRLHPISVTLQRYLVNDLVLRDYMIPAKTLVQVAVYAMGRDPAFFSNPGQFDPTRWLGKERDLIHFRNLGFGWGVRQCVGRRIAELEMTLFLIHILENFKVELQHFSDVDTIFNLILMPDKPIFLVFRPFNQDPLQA
pIC50: −log10 of the molar value.
Measured Metric: pIC50

1) N#CC1(c2ccccc2)CCN(c2nc(N3CCOCC3)nc(-n3ccnc3)n2)CC1 [Compound 13] = 4.66
2) c1ccc(N2CCN(c3nc(N4CCOCC4)nc(-n4ccnc4)n3)CC2)nc1 [Compound 8] = 4.27
3) CN(c1ccccc1)c1nc(N2CCOCC2)nc(-n2ccnc2)n1 [Compound 14] = 4.51
4) c1ccc(C2CCN(c3nc(-n4ccnc4)nc(-n4ccnc4)n3)CC2)cc1 [Compound 28] = 5.02
5) CCC1(c2ccc(N)cc2)CCC(=O)NC1=O (stereo not shown) [AG, aminoglutethimide, reference compound] = 4.18
6) c1ccc(C2CCN(c3nc(N4CCOCC4)nc(-n4ccnc4)n3)CC2)cc1 [Compound 38] = 4.64
7) c1cn(-c2nc(N3CCOCC3)nc(N3CCSC3)n2)cn1 [Compound 7] = 4.14
8) CCN(CC)c1nc(-n2ccnc2)nc(-n2ccnc2)n1 [Compound 25] = 4.60
9) OC1CCN(c2nc(N3CCOCC3)nc(-n3ccnc3)n2)CC1 [Compound 46] = 4.00
